MEASUREMENT TARGET: RORγ-LBD (Homo sapiens (Human))
ASSAY COMMENT: RORγ-Ligand Binding Domain (LBD) TR-FRET Assay Protocol I
Type: biochemical
EXPERIMENTAL SETUP: RORγ-LBD lysate from SF9 cells, SRC1-2 peptide
VALUE TYPE: EC50 (nM)

1 = O=C(Nc1cc2c(cn1)cnn2S(=O)(=O)c1ccc(F)cc1)c1c(Cl)cccc1Cl [Compound 5]
2 = Cc1cccc(S(=O)(=O)N2C[C@H](C)Oc3ncc(NC(=O)c4c(F)cccc4Cl)cc32)c1 [Compound 14]
3 = O=C(Nc1cc2c(cn1)cnn2S(=O)(=O)c1cccc(OC(F)F)c1)c1c(F)cccc1Cl [Compound 8]
IN: Which order do the items above take when sorted by EC50 from high to low? List the labels, following the order given in the request.
OUT: 1, 3, 2

* * *

MEASUREMENT TARGET: RORγ-LBD (Homo sapiens (Human))
ASSAY COMMENT: RORγ-Ligand Binding Domain (LBD) TR-FRET Assay Protocol II
Format: biochemical
EXPERIMENTAL SETUP: purified RORγ-LBD, SRC1 peptide, overnight at 4° C.
pEC50: −log10 of the molar value.
VALUE TYPE: pEC50

Take a look at these entries with their results.
- COMPOUND: "Cc1cccc(S(=O)(=O)N2C[C@H](C)Oc3ncc(NC(=O)c4c(F)cccc4C(F)(F)F)cc32)c1 [Compound 24]"
  MEASUREMENT TARGET: "RORγ-LBD (Homo sapiens (Human))"
  pEC50: 8.22
- COMPOUND: "C[C@H]1CN(S(=O)(=O)c2cccc(C3CC3)c2)c2cc(NC(=O)c3c(F)cccc3Cl)cnc2O1 [Compound 27]"
  MEASUREMENT TARGET: "RORγ-LBD (Homo sapiens (Human))"
  pEC50: 7.96

1 = Cc1cccc(S(=O)(=O)N2CCCc3ncc(NC(=O)[C@@H](C)c4ccccc4)cc32)c1 [Compound 38]
2 = Cc1nn(C(F)F)cc1S(=O)(=O)N1C[C@H](CN2CC[C@@H](O)C2)Cc2ncc(NC(=O)[C@@H](C)C(C)(C)C)cc21 [Compound 95]
3 = CN1CC(=O)N(C[C@H]2CN(S(=O)(=O)c3cccc(Cl)c3)c3cc(NC(=O)c4c(Cl)cccc4Cl)cnc3O2)C1=O [Compound 86]
IN: Order field: pEC50 | Direction: descending (largest first) Provide the ranking by listing each label in its place in the requested order.
OUT: 3, 1, 2
(3: 8.00, 1: 7.21, 2: 5.39)

* * *

MEASUREMENT TARGET: RORγ-LBD (Homo sapiens (Human), UniProt P51449)
Sequence (P51449 269-508): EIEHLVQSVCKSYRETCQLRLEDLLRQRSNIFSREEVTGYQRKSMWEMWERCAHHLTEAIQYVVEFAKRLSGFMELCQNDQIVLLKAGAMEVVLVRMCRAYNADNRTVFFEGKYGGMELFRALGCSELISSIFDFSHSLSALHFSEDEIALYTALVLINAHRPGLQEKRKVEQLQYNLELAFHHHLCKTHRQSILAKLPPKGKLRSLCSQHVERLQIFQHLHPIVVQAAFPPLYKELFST
ASSAY COMMENT: RORγ-Ligand Binding Domain (LBD) TR-FRET Assay Protocol II
Format: biochemical
EXPERIMENTAL SETUP: purified RORγ-LBD, SRC1 peptide, overnight at 4° C.
Protocol: Part II—Procedures for RORγ-Ligand Binding Domain TR-FRET Assay Protocol II HIS-tagged RORγ-LBD protein was expressed in SF9 cells using a baculovirus expression system. The RORγ-LBD protein was purified by […]. Separately, SF9 cells not expressing recombinant protein were lysed in TBS buffer (25 mM Tris, pH 8.0, 150 mM NaCl) under sonication. […]
Structures can show the parent of a compound that is named as a salt.
VALUE TYPE: EC50 (µM)

# annotated cases, reported EC50 shown
- COMPOUND: "O=C(Nc1cnc2c(c1)N(S(=O)(=O)c1cccc(Cl)c1)C[C@H](CN1C(=O)COC1=O)O2)c1c(Cl)cccc1Cl"
  MEAS VALUE: 0.02
- COMPOUND: "CCN(CC)[C@H]1Cc2ncc(NC(=O)c3c(Cl)cccc3Cl)cc2N(S(=O)(=O)c2cccc(C)c2)C1"
  MEAS VALUE: 0.025
- COMPOUND: "Cc1cccc(S(=O)(=O)N2CC(CO)Cc3ncc(NC(=O)c4c(Cl)cccc4Cl)cc32)c1 (centres unmarked)"
  MEAS VALUE: 0.02
- COMPOUND: "Cc1cccc(S(=O)(=O)N2C[C@H](N)Cc3ncc(NC(=O)c4c(Cl)cccc4Cl)cc32)c1 [Compound 40, trifluoroacetic acid salt]"
  MEAS VALUE: 0.018
- COMPOUND: "O=C(Nc1cnc2c(c1)N(S(=O)(=O)c1cccc(C(F)(F)F)c1)C[C@H](N1CCCC1=O)C2)c1c(Cl)cccc1Cl"
  MEAS VALUE: 0.012
- COMPOUND: "CC(C)OC(=O)N[C@@H]1Cc2ncc(NC(=O)c3c(Cl)cccc3Cl)cc2N(S(=O)(=O)c2cccc(C(F)(F)F)c2)C1"
  MEAS VALUE: 0.013
- COMPOUND: "CC(C)(C)OC(=O)NC1Cc2ncc(NC(=O)c3c(Cl)cccc3Cl)cc2N(S(=O)(=O)c2cccc(C3CC3)c2)C1 (centres unmarked)"
  MEAS VALUE: 0.013
- COMPOUND: "O=C(Nc1cnc2c(c1)N(S(=O)(=O)c1cccc(Cl)c1)C[C@H](CN1CC[C@@H](O)C1)O2)c1c(Cl)cccc1Cl"
  MEAS VALUE: 0.032

A = O=C(Nc1cnc2c(c1)N(S(=O)(=O)c1cccc(C(F)(F)F)c1)C[C@@H](N1CCCC1=O)C2)c1c(Cl)cccc1Cl
B = Cc1cccc(S(=O)(=O)N2C[C@H](C)Oc3ncc(NC(=O)C(C)c4ccc(Cl)cc4)cc32)c1 (some centres unmarked)
IN: Which record shows the lower EC50: the first, A , or the second, B ? In your reply, give the label of the chosen option.
OUT: A

P = Cc1cccc(S(=O)(=O)N2C[C@H](C)Oc3ncc(NC(=O)C(C)C(F)(F)F)cc32)c1 (some centres unmarked)
Q = CC(=O)NC[C@H]1CN(S(=O)(=O)c2cccc(C3CC3)c2)c2cc(NC(=O)c3c(Cl)cccc3Cl)cnc2O1 [Compound 43]
R = C[C@H](N)C(=O)N[C@H]1Cc2ncc(NC(=O)c3c(Cl)cccc3Cl)cc2N(S(=O)(=O)c2cccc(C(F)(F)F)c2)C1
S = Cc1cccc(S(=O)(=O)N2CCCc3ncc(NC(=O)c4c(F)cccc4Cl)cc32)c1
IN: Sort the 4 compounds by EC50; largest first, smallest last. Kindly provide the labels arranged according to the requested ordering.
OUT: R, P, Q, S
(R: 0.852 µM, P: 0.111 µM, Q: 0.024 µM, S: 0.016 µM)

A = CCN(CC)[C@@H]1Cc2ncc(NC(=O)c3c(Cl)cccc3Cl)cc2N(S(=O)(=O)c2cccc(C)c2)C1
B = Cc1cccc(S(=O)(=O)N2C[C@H](C)Oc3ncc(NC(=O)C(C)c4ccc(F)cc4)cc32)c1 (some centres unmarked)
IN: Quick one: lower EC50, A or B ? # reply format: chosen label
OUT: A
(A: 0.024 µM, B: 0.097 µM)
